Ref: ChEMBL document CHEMBL4130471

Subject Of Test: Histone deacetylase 1 (Homo sapiens, UniProt Q13547)
Sequence (Q13547 whole entry): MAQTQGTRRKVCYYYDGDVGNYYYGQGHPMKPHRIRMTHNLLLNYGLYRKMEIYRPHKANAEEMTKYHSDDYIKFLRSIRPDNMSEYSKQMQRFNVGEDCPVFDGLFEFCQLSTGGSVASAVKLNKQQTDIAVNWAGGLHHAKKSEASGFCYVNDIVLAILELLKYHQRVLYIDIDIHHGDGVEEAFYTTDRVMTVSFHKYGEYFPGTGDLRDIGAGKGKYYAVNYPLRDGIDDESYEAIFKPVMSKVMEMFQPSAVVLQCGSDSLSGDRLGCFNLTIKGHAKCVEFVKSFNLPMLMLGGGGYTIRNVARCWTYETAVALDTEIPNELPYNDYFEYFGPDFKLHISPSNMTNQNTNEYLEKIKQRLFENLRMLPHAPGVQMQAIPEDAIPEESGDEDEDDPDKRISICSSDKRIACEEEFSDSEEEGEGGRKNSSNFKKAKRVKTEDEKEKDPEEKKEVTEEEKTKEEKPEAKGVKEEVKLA
Assay Remarks: Inhibition of C-terminal His-tagged and C-terminal FLAG-tagged human HDAC1 expressed in baculovirus expression system using Ac-peptide substrate incubated for 15 mins by fluorescence based assay
Give IC50 for every item shown.
Numeric only. Scale: nM

Print Histone deacetylase 1 (Homo sapiens, UniProt Q13547) IC50 for Nc1ccccc1NC(=O)c1ccc(CNC2CC2c2ccccc2)cc1 (stereo not drawn) .
218

Print Histone deacetylase 1 (Homo sapiens, UniProt Q13547) IC50 for O=C(NO)c1ccc(CNC2CC2c2ccccc2)cc1 (stereo not drawn) .
1440

Print Histone deacetylase 1 (Homo sapiens, UniProt Q13547) IC50 for Nc1ccccc1NC(=O)/C=C/c1ccc(CNC2CC2c2ccccc2)cc1 (stereo not drawn) .
314

* * *

Test system: MGC-803
Assay Remarks: cells
Assay type: functional, cell-based
Condition Notes: Homo sapiens, MGC-803, 72 h
Description: Antiproliferative activity against human MGC803 cells incubated for 72 hrs by MTT assay
Measurement Label: pIC50
Friendly reminder that pIC50 comes from taking -log10 of the concentration in mol/L.

For the molecule O=C(/C=C/c1ccc(CNC2CC2c2ccccc2)cc1)NO (stereo not given) , give its measured pIC50 value.
5.61

For the molecule O=C(NO)c1ccc(CNC2CC2c2ccccc2)cc1 (stereo not given) , give its measured pIC50 value.
4.92

For the molecule Nc1ccccc1NC(=O)c1ccc(CNC2CC2c2ccccc2)cc1 (stereo not given) , give its measured pIC50 value.
4.67

For the molecule Nc1ccccc1NC(=O)/C=C/c1ccc(CNC2CC2c2ccccc2)cc1 (stereo not given) , give its measured pIC50 value.
4.87

For the molecule `O=C(CCCCCCNC(=O)c1ccc(CNC2(c3ccccc3)CC2)cc1)NO` , give its measured pIC50 value.
6.09

* * *

Give pIC50 for every item shown.
Target sequence: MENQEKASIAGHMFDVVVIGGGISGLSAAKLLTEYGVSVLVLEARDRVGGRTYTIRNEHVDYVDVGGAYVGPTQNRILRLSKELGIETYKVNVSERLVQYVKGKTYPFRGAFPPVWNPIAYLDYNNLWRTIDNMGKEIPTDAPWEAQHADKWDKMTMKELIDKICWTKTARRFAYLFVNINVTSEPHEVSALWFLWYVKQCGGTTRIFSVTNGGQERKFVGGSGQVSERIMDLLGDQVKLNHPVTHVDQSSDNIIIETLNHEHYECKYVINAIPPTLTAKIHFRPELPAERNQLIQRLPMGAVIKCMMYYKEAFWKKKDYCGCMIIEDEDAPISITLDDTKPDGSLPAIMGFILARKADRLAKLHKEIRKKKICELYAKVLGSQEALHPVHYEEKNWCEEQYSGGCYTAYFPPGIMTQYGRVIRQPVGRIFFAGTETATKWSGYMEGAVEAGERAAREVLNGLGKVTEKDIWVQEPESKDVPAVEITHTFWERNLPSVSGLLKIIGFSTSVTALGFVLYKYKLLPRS
Friendly reminder that pIC50 comes from taking -log10 of the concentration in mol/L.

For the compound Nc1ccccc1NC(=O)c1ccc(CNC2CC2c2ccccc2)cc1 (stereo not drawn) , give its measured pIC50 value.
4.30

For the compound Nc1ccccc1NC(=O)/C=C/c1ccc(CNC2CC2c2ccccc2)cc1 (stereo not drawn) , give its measured pIC50 value.
4.43

* * *

Measurement Label: IC50

Print UniProt P27338 IC50 for `O=C(CCCCCCNC(=O)c1ccc(CNC2(c3ccccc3)CC2)cc1)NO` .
Sequence (P27338 whole entry): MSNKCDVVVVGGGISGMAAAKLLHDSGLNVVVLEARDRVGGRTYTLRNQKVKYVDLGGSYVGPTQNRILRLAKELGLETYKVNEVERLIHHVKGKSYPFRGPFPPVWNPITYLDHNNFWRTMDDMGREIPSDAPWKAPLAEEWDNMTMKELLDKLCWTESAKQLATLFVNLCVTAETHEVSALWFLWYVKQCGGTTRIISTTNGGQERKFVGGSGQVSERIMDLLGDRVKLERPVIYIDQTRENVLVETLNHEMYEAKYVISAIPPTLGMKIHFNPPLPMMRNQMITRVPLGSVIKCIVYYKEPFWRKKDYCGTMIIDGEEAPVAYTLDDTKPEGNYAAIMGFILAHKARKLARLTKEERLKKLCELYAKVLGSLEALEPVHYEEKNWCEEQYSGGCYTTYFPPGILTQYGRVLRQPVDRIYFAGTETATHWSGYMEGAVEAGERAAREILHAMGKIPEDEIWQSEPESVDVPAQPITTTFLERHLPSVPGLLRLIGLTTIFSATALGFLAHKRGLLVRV
87.1 µM

Print UniProt P27338 IC50 for Nc1ccccc1NC(=O)/C=C/c1ccc(CNC2CC2c2ccccc2)cc1 (centres undefined) .
> 100 µM

Print UniProt P27338 IC50 for Nc1ccccc1NC(=O)c1ccc(CNC2CC2c2ccccc2)cc1 (centres undefined) .
> 100 µM

Print UniProt P27338 IC50 for O=C(/C=C/c1ccc(CNC2CC2c2ccccc2)cc1)NO (centres undefined) .
> 100 µM
